- TARGET: T1, human IGSF11 (VSIG3) on cells (human, UniProt Q5DX21 23-431)
- T1 sequence: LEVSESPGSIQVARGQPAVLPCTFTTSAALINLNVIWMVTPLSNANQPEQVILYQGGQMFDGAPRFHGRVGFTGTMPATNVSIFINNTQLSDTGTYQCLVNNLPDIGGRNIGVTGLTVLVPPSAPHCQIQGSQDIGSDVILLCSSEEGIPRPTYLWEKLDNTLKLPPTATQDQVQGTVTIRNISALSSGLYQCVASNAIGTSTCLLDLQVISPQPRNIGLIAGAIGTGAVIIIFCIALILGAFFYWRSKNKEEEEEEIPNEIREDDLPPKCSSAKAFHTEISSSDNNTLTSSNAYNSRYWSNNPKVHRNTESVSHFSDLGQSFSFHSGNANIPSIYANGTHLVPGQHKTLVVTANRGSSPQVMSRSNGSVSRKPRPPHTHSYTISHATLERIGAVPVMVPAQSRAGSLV
- ASSAY_EXPLANATION: FACS % positive cells, scFv

BINDER	binding result
A-014 (scFv format) (scFv, V domains shown, scFv) VH: QVQLVQSGAEVKKPGASVKVSCKASGYTFNDYYIHWVRQAPGQGLEWMGWFNPSTGGANYAQKFQGRVTMTRDTSISTAYLEVSSLRSDDTAVYYCARGNSPDLDYWGQGTLVTVSS VL: DIQMTQSPDSLTVSLGERATINCKSSQSLLHSSNNKNYLAWYQQRPGQPPKLLIYWASTRQSGVPDRFSGSGSGTDFTLTINSLQADDMAVYYCQQYYTTTPNTFGQGTKLEIK	binds
A-021 (scFv format) (scFv, V domains shown, scFv) VH: QVQLVQSGAEVKKPGASVKVSCKASGYTFTSYGISWVRQAPGQGLEWMGWISAYNGNTNYAQKLQGRVTMTTDTSTSTAYMELRSLRSDDTAVYYCARVPAWSGQFDYWGQGTLVTVSS VL: QSALTQPASVSGSPGQSITISCTGTSSDVGGYNYVSWYQQHPGKAPKLMIYEVTNRPSGVSDRFSGSKSANTASLTISELQAEDEAVYYCNSYTSGPTYVLFGGGTQLTVL	binds
A-037 (scFv format) (scFv, V domains shown, scFv) VH: QVQLVQSGAEVKKPGASVKVSCKASGYTFTGYYMHWVRQAPGQGLEWMGWINPNSGNTGYAQKFQGRVTMTRNTSISTAYMELSSLRSEDTAVYYCARGGQQQLVLDDYWGQGTLVTVSS VL: NFMLTQPHSVSESPGKTVTISCTGSSGSIASNYVQWYQQRPGSAPTTVIYEDNQRPSGVPDRFSGSIDSSSNSASLTISGLKTEDEADYYCQSYDSSNQRVFGGGTKLTVL	binds
